biological target: Somatostatin receptor type 5 (Homo sapiens, UniProt P35346); assay: Displacement of [125I][LTT]SRIF28 from human cloned sst5 receptor by autoradiography
Sequence (P35346 whole entry): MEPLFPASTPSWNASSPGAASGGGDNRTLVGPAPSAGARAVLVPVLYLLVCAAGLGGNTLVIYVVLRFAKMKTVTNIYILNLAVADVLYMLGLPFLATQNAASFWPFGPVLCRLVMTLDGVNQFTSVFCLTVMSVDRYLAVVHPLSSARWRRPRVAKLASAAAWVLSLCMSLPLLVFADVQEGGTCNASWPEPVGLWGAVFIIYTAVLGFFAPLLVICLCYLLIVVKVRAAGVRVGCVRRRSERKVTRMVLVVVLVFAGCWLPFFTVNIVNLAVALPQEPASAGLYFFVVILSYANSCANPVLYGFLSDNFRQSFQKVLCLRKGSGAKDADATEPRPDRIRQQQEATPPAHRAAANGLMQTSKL
// reported IC50 for each item listed
readout name: IC50

[
  {
    "molecule smiles": "C[C@@H](O)[C@@H]1NC(=O)[C@H](CCCCN)NC(=O)[C@@H](Cc2ccc(NC(N)=O)cc2)NC(=O)[C@H](Cc2ccc(NC(=O)[C@@H]3CC(=O)NC(=O)N3)cc2)NC(=O)[C@H](NC(=O)[C@@H](N)Cc2ccc(Cl)cc2)CSSC[C@@H](C(=O)N[C@@H](Cc2ccc3ccccc3c2)C(N)=O)NC1=O",
    "tested target": "Somatostatin receptor type 5 (Homo sapiens, UniProt P35346)",
    "result": "> 1000 nM"
  },
  {
    "molecule smiles": "C[C@@H](O)[C@@H]1NC(=O)[C@H](CCCCN)NC(=O)[C@@H](Cc2ccc(NC(N)=O)cc2)NC(=O)[C@H](Cc2ccc(NC(=O)[C@@H]3CC(=O)NC(=O)N3)cc2)NC(=O)[C@H](NC(=O)[C@H](Cc2ccc(Cl)cc2)NC(=O)CN2CCN(CC(=O)O)CCN(CC(=O)O)CCN(CC(=O)O)CC2)CSSC[C@@H](C(=O)N[C@H](Cc2ccc(O)cc2)C(N)=O)NC1=O",
    "tested target": "Somatostatin receptor type 5 (Homo sapiens, UniProt P35346)",
    "result": "> 1000 nM"
  },
  {
    "molecule smiles": "C[C@@H](O)[C@@H]1NC(=O)[C@H](CCCCN)NC(=O)[C@@H](Cc2ccc(NC(N)=O)cc2)NC(=O)[C@H](Cc2ccc(NC(=O)[C@@H]3CC(=O)NC(=O)N3)cc2)NC(=O)[C@H](NC(=O)[C@H](Cc2ccc(Cl)cc2)NC(=O)CN2CCN(CC(=O)O)CCN(CC(=O)O)CCN(CC(=O)O)CC2)CSSC[C@@H](C(=O)N[C@@H](Cc2ccc3ccccc3c2)C(N)=O)NC1=O",
    "tested target": "Somatostatin receptor type 5 (Homo sapiens, UniProt P35346)",
    "result": "> 1000 nM"
  },
  {
    "molecule smiles": "C[C@@H](O)[C@@H]1NC(=O)[C@H](CCCCN)NC(=O)[C@@H](Cc2c[nH]c3ccccc23)NC(=O)[C@H](Cc2ccc(O)c(I)c2)NC(=O)[C@H](NC(=O)[C@H](Cc2ccc([N+](=O)[O-])cc2)NC(=O)CN2CCN(CC(=O)O)CCN(CC(=O)O)CCN(CC(=O)O)CC2)CSSC[C@@H](C(=O)N[C@H](Cc2ccc(O)cc2)C(N)=O)NC1=O",
    "tested target": "Somatostatin receptor type 5 (Homo sapiens, UniProt P35346)",
    "result": "> 1000 nM"
  },
  {
    "molecule smiles": "C[C@@H](O)[C@@H]1NC(=O)[C@H](CCCCN)NC(=O)[C@@H](Cc2c[nH]c3ccccc23)NC(=O)[C@H](Cc2ccc(NC(N)=O)cc2)NC(=O)[C@H](NC(=O)[C@@H](N)Cc2ccc(Cl)cc2)CSSC[C@@H](C(=O)N[C@@H](Cc2ccc(NC(=O)[C@@H]3CC(=O)NC(=O)N3)cc2)C(N)=O)NC1=O",
    "tested target": "Somatostatin receptor type 5 (Homo sapiens, UniProt P35346)",
    "result": "320 nM"
  }
]
